- Tested on: Middle East respiratory syndrome-related coronavirus
- METHOD_SUMMARY: Antiviral activity against MERS-CoV expressing spike protein infected in African green monkey Vero cells assessed as inhibition of viral growth by Hoechst 33342 staining based immunofluorescence analysis
- Type: functional, organism-based
PARAMETER: EC50 (nM)
State the answer as a number, implicitly in nM.

QUERY: What value of EC50 has been reported for the following compound? O=C(Nc1cc(Cl)cc(Cl)c1)c1n[nH]c2ccccc12
RESULT: 1700

###

- TARGET_OR_SYSTEM: CYP3A4 (Homo sapiens)
- Sequence (P08684 whole entry): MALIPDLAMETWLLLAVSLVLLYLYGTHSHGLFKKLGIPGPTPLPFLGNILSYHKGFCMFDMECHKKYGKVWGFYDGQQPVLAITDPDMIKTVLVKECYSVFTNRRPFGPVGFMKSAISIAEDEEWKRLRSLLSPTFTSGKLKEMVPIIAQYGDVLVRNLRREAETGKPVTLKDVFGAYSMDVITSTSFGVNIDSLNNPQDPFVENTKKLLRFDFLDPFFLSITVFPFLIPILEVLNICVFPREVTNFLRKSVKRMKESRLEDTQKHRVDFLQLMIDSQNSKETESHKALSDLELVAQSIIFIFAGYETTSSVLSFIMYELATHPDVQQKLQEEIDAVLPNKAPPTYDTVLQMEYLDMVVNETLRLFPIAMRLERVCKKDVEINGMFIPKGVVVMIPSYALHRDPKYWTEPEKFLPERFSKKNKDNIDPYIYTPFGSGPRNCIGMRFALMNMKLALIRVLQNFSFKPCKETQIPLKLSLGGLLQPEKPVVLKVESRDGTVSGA
- METHOD_SUMMARY: Inhibition of CYP3A4 in human liver microsomes using […] as substrate at 10 uM preincubated for 5 mins followed by substrate and NADPH addition and measured after 20 mins by HPLC-MS/MS analysis
- Format: ADME, Microsome
- CONDITION_LABEL: probe sorafenib, time 25 min
PARAMETER: inhibition at 20 min, 10 µM (%)
State the answer as a number, implicitly in %.

QUERY: What value of inhibition at 20 min, 10 µM has been reported for the following compound? O=C(Nc1cc(Cl)cc(Cl)c1)c1n[nH]c2ccc(Cl)cc12
RESULT: 54

These measurements were taken from ChEMBL document CHEMBL6096632.
